# TEST PROTOCOL: inhibitors of the yeast RAM network, pilot screen, dse1pr::URA3 reporter, 5-FOA selection (AID 869);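 note: 0% = DMSO wells with no growth and 100% = 10 µM 1-NA-PP1 with full growth; RAM network block rescues cells from 5-FOA so hits raise OD615 growth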
# MEASUREMENT CONDITIONS: S. cerevisiae dse1pr::URA3 5-FOA growth, OD615, 2 d; at 10 µM; active compounds read high; strain carries analog-sensitive mutant Cbk1 kinase
QUANTITY KIND: inhibition (%)
Kindly answer with a numeric value in %, unit omitted.

INSERT INTO measurements (compound, quantity_kind, result_value) VALUES
  ('Cc1ccnc(SCCn2c(N3CCN(c4ccccc4)CC3)nc3c2c(=O)[nH]c(=O)n3C)n1', 'inhibition', 2.09),
  ('COC(=O)C1=CN(CCCN2CCCC2=O)C=C(C(=O)OC)C1c1ccccc1C(F)(F)F', 'inhibition', 0.125),
  ('O=C1c2ccccc2C(Nc2cccnc2)N1Cc1ccc2c(c1)OCO2 (stereo unspecified)', 'inhibition', 0.205),
  ('CCCc1cc(C(=O)NC2CCCC2)no1', 'inhibition', 0.365);

Prompt: Give recorded inhibition. O=C(O)CCc1n[nH]c(=S)[nH]c1=O
Response: 0.76

Prompt: Give recorded inhibition. COCCNC(=O)CS(=O)(=O)Cc1nc(-c2ccc(C)cc2)oc1C
Response: -0.325

Prompt: Give recorded inhibition. CCCc1n[nH]c2c1C(=O)C(C(=O)OC)C(C)(C)C2 (stereo unspecified)
Response: 1.14

Prompt: Give recorded inhibition. COc1cc(/C=N/n2cnnc2)ccc1OC(=O)c1ccncc1
Response: 1.43

Prompt: Give recorded inhibition. CCC1CCCCN1Cc1nc2c(c(=O)n(C)c(=O)n2C)n1Cc1ccccc1 (stereo unspecified)
Response: 2.1

Prompt: Give recorded inhibition. CCC1CCCCN1C(=O)CSc1nc(N)c(NC(=O)c2ccco2)c(=O)[nH]1 (stereo unspecified)
Response: 2.09

Prompt: Give recorded inhibition. Cn1c(=O)[nH]c(=O)c2c1nc(N1CCCCCC1)n2CCSc1nc2ccccc2o1
Response: 1.73

* * *

# TEST PROTOCOL: inhibitors of the yeast RAM network, pilot screen, dse1pr::URA3 reporter, 5-FOA selection (AID 869);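 note: 0% = DMSO wells with no growth and 100% = 10 µM 1-NA-PP1 with full growth; RAM network block rescues cells from 5-FOA so hits raise OD615 growth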
# MEASUREMENT CONDITIONS: S. cerevisiae dse1pr::URA3 5-FOA growth, OD615, 2 d; at 10 µM; active compounds read high; strain carries analog-sensitive mutant Cbk1 kinase
QUANTITY KIND: inhibition (%)
Kindly answer with a numeric value in %, unit omitted.

Look over these answered cases.
INSERT INTO measurements (compound, result_value) VALUES
  ('CC(=O)c1cccc(NC(=O)C2CCCN(S(=O)(=O)c3cccc4cccnc34)C2)c1 (stereo not drawn)', 2.18),
  ('COCCCNC(=O)Cn1cc2c(n1)CCCCC2', -0.6),
  ('COc1ccccc1NC(=O)CSc1nc2sc(C)c(C)c2c(=O)n1Cc1ccco1', 2.17),
  ('CCOC(=O)c1ccc(N2C(=O)C3ON(c4ccccc4)C(c4ccco4)C3C2=O)cc1 (stereo not drawn)', 1.73),
  ('Cn1nc(-c2ccc(Cl)cc2)c2cc(C(=O)N3CCN(c4ccccn4)CC3)sc21', -0.47);

Prompt: Give recorded inhibition. CCCc1nc(SCC(=O)Nc2cc(C)on2)c2c(=O)n(C)c(=O)n(C)c2n1
Response: 3.88

Prompt: Give recorded inhibition. COc1cccc(NS(=O)(=O)c2cn(C)c(=O)n(C)c2=O)c1
Response: 2.42
